In this section, each of the compounds is paired with its reported activation at 0.1 µM.
system-tested: glucocerebrosidase (Gcase) (Homo sapiens, UniProt P04062)
Construct: micellar solution containing 10 nM GCase and 100 nM saposin C
Sequence (P04062 40-536): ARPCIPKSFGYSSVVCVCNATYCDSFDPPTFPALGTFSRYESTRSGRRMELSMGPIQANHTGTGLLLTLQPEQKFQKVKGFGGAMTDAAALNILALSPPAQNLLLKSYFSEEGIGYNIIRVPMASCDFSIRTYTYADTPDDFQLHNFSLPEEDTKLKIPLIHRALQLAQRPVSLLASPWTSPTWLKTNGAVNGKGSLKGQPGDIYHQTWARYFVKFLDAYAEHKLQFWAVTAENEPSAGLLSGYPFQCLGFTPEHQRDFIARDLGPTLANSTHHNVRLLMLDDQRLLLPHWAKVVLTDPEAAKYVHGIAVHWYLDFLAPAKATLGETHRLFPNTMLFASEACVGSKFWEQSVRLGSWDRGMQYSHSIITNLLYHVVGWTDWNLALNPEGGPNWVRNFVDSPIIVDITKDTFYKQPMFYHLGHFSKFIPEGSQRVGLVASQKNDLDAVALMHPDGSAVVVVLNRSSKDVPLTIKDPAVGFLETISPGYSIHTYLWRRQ
test-description: Glucocerebrosidase (Gcase) activation assay, 4-methylumbelliferyl-beta-D-glucopyranoside substrate, with saposin C
Type: biochemical
run-conditions: 0.25 h; read-out: Percent Gcase Activation 0.1 μM Test Compound

compound: Cc1cc(-c2cccc(F)c2)nn2c(C(=O)NC(C)C(F)(F)F)cnc12 (stereo not drawn)
activation at 0.1 µM: 5 to 20%
--
compound: CCCCCO[C@H]1CC[C@H](NC(=O)c2cnc3ccc(Cl)nn23)CC1
activation at 0.1 µM: < 5%
--
compound: Cc1cc(-c2cccc(F)c2)nn2c(C(=O)NC(C)(C)C3CC3)cnc12
activation at 0.1 µM: > 20%
--
compound: COc1cncc(-c2cc(C)c3ncc(C(=O)N[C@@H](C4CC4)C(F)(F)F)n3n2)c1
activation at 0.1 µM: 5 to 20%
--
compound: Cc1cc(C)c2snc(C(=O)NC3CCCc4ccccc43)c2n1 (stereo not drawn)
activation at 0.1 µM: > 20%

Now, please, on to the next compound.
Problem: Requested field: activation at 0.1 µM. Item: Cc1cc(-c2ccc3ocnc3c2)nn2c(C(=O)N[C@H](C)C(F)(F)F)cnc12
Result: 5 to 20%
